Tested on: Vibrio harveyi
Test: Inhibition of AHL-mediated quorum sensing in Vibrio harveyi ATCC BAA-1118 after 1.5 hrs by bioluminescence assay
The source made the active and inactive calls. The rule behind the calls is not given here.
Experimental readout: inhibition

CC1=C(Br)C(C(Br)Br)OC1=O (stereo not given)	inactive
CC1=CC(=O)OC1=O	inactive
CC1=C(Br)C(Br)(C(Br)Br)OC1=O (stereo not given)	inactive

====

Test system: Pseudomonas aeruginosa
Assay: Antibacterial activity against Pseudomonas aeruginosa PAO1 assessed as viability of persister cells at 2 ug/mL after 2 hrs
Calls of active or inactive are those of the source. The rule behind the calls is not given here.
Experimental readout: Activity

Sample records with Activity:
COC1=CC(=O)OC1	inactive
CC1=C(Br)C(Br)(C(Br)Br)OC1=O (stereo not given)	Active
O=C1OC(=C(Br)Br)C=C1C(Br)Br	Active
CC1=CC(=O)OC1=O	inactive

API: the following record is the query input.
Activity measured on O=C1O/C(=C\Br)C(Br)=C1CBr = Active
